Data provenance is patent US11814364B2.

test.target: human plasma kallikrein (Homo sapiens)
assay: Kallikrein inhibition FLINT assay with quenched AMC peptide substrate Z-Gly-Pro-Arg-AMC (end point EP or kinetic KIN reads)
Type: biochemical
test.context: kinetic reads at 5 min intervals over 30 min; read-out: Kallikrein (KIN) IC50
recorded.endpoint: IC50

Take a look at these entries with their results.
O=C(O)C1CCN(C(=O)c2ccn(CC(c3ccc(-c4c(-n5cnnn5)ccc(Cl)c4F)c[n+]3[O-])n3cc(-c4ccncc4)cn3)n2)CC1 (stereo not drawn)
1.8 nM
Cn1ncnc1-c1cnn(C(CCOC(F)F)c2ccc(-c3c(-n4nncc4OC(F)F)ccc(Cl)c3F)c[n+]2[O-])c1 (single isomer, unassigned)
62.7 nM
Nc1cnc(-c2cnn(C(CCOC(F)F)c3ccc(-c4c(-n5cc(C(F)(F)F)nn5)ccc(Cl)c4F)c[n+]3[O-])c2)c(F)n1 (single isomer, unassigned)
62.7 nM
[O-][n+]1cc(-c2c(-n3cnnn3)ccc(Cl)c2F)ccc1C(Cc1ccc(F)cc1)n1cc(-c2c(Cl)nnn2C(F)F)cn1 (stereo not drawn) [Example P605]
10.7 nM
[2H]C([2H])([2H])Nc1ccc(-c2cnn(C(CCOC([2H])([2H])[2H])c3ccc(-c4c(-n5cnnn5)ccc(Cl)c4F)c[n+]3[O-])c2)cc1 (stereo not drawn)
110 nM
Cn1nccc1-c1cnn(C(CCOC(F)F)c2ccc(-c3c(-n4cnnn4)ccc(Cl)c3F)c[n+]2[O-])c1 (stereo not drawn)
8.9 nM
COC(=O)Nc1ccc(-c2cnn(C(CC3CCCO3)c3ccc(-c4c(-n5cnnn5)ccc(Cl)c4F)c[n+]3[O-])c2)cc1 (single isomer, unassigned)
119 nM
Cn1ncnc1-c1cnn([C@H](CCOC(F)F)c2ccc(-c3c(-n4cc(C5CC5)nn4)ccc(Cl)c3F)c[n+]2[O-])c1
203 nM

Using the record for [2H]C([2H])(CC(c1ccc(-c2cc(Cl)ccc2C#N)c[n+]1[O-])n1cc(-c2ncnn2C(F)F)cn1)OC(F)F (single isomer, unassigned) , report its IC50.
222 nM

Now this one: [O-][n+]1cc(-c2c(C(F)F)ccc(Cl)c2F)ccc1C(CCOC(F)F)n1cc(-c2ccnc(C(F)(F)F)n2)cn1 (stereo not drawn)
259 nM

# iterate: Cn1nnc(F)c1-c1cnn(C(Cc2ccn(C(F)F)n2)c2ccc(-c3c(-n4cc(Cl)nn4)ccc(Cl)c3F)c[n+]2[O-])c1 (stereo not drawn) [Example P797]
23.8 nM

Also check O=C(O)c1ccc(-c2cnn(C(CN3CCCC3=O)c3ccc(-c4c(C(F)F)ccc(Cl)c4F)c[n+]3[O-])c2)cc1 (single isomer, unassigned) [Example Q14]
3.9 nM

Also check COC(=O)N(C)CC(c1ccc(-c2c(-n3cnnn3)ccc(Cl)c2F)c[n+]1[O-])n1cc(-c2ccncc2)cn1 (stereo not drawn)
32.7 nM

Let us now turn to [O-][n+]1ccc(-c2cnn(C(Cc3ccc(F)cc3)c3ccc(-c4c(OC(F)F)ccc(Cl)c4F)c[n+]3[O-])c2)cc1 (single isomer, unassigned) [Example Q17]
7820 nM

* * *

test.target: human plasma kallikrein (Homo sapiens, UniProt P03952)
Sequence (P03952 391-638 limits assumed): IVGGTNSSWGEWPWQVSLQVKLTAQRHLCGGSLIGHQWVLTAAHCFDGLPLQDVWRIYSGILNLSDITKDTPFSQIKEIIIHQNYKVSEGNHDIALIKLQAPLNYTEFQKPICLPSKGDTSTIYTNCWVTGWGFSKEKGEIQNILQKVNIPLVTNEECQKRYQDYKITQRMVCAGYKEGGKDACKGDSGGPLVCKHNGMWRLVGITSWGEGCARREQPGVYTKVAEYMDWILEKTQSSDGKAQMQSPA
Sequence (P03952 20-390 partner limits assumed): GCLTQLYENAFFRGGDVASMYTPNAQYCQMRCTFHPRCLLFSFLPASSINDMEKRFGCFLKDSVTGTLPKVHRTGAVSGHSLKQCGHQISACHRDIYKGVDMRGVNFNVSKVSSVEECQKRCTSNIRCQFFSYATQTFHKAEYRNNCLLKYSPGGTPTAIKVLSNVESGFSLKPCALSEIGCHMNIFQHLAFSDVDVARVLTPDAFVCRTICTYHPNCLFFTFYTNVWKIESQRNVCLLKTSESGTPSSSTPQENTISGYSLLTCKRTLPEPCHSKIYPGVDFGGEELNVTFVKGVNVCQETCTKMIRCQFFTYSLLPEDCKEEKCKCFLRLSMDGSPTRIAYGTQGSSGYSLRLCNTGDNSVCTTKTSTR
assay: Kallikrein inhibition FLINT assay with quenched AMC peptide substrate Z-Gly-Pro-Arg-AMC (end point EP or kinetic KIN reads)
Format: biochemical
test.context: kinetic reads at 5 min intervals over 30 min; read-out: Kallikrein (KIN) IC50
Could you mark each record y if its IC50 falls strictly under 90 nM, and n if it equals or exceeds it?

Below are worked cases with known answers.
[O-][n+]1cc(-c2c(-n3cnnn3)ccc(Cl)c2F)ccc1C(C(O)c1ccccc1)n1cc(-c2ccnn2C(F)F)cn1 (single isomer, unassigned) [Example P713]
y
Cn1nccc1-c1cnn(C(Cn2cc(F)cn2)c2ccc(-c3c(-n4cnnn4)ccc(Cl)c3F)c[n+]2[O-])c1 (centres unmarked) [Example P503]
y
[2H]C([2H])([2H])OCCC(c1ccc(-c2c(-n3cnnn3)ccc(Cl)c2F)c[n+]1[O-])n1cc(-c2ccnc(C(F)(F)F)c2)cn1 (single isomer, unassigned) [Example P386]
y
NC(=O)c1ccc(-c2cnn(C(Cc3ccn(C(F)F)n3)c3ccc(-c4c(C(F)F)ccc(Cl)c4F)c[n+]3[O-])c2)cc1F (single isomer, unassigned) [Example Q67]
y
[O-][n+]1cc(F)c(-c2cnn(C(CC3CC3)c3ccc(-c4c(-n5cnnn5)ccc(Cl)c4F)c[n+]3[O-])c2)c(Cl)c1 (single isomer, unassigned) [Example P862]
n
COC(=O)Nc1ccc(-c2cnn(C(Cc3ccn(C)n3)c3ccc(-c4c(-n5cnnn5)ccc(Cl)c4F)c[n+]3[O-])c2)cc1 (single isomer, unassigned) [Example P328]
y
Cn1ncnc1-c1cnn([C@H](Cc2ccn(C(F)F)n2)c2ccc(-c3c(-n4cc(C(F)(F)F)nn4)ccc(Cl)c3F)c[n+]2[O-])c1 [Example P816]
y
Cn1nnc(F)c1-c1cnn(C(Cc2ccn(C(F)F)n2)c2ccc(-c3c(-n4cc(Cl)nn4)ccc(Cl)c3F)c[n+]2[O-])c1 (centres unmarked) [Example P795]
y

Does this compound meet the criterion IC50 < 90 nM? COC(=O)Nc1ccc(-c2cnn(C(Cn3cccn3)c3ccc(-c4c(-n5cnnn5)ccc(Cl)c4F)c[n+]3[O-])c2)cc1 (centres unmarked) [Example P214]
y

Then this compound: Cn1cncc1-c1cnn(C(CC2CC2)c2ccc(-c3c(-n4cnnn4)ccc(Cl)c3F)c[n+]2[O-])c1 (centres unmarked) [Example P495]
n

How about this compound: CC(C)(O)C[C@H](c1ccc(-c2c(-n3cnnn3)ccc(Cl)c2F)c[n+]1[O-])n1cc(-c2ccnn2C(F)F)cn1 [Example P648]
n
